Overview of reported TGI across a group of compounds:
# System: K-562 leukemia
# EXPERIMENTAL_PROTOCOL: NCI tumour cell line growth inhibition, 48 h

COMPOUND	TGI
CC[C@@H](CCCC[C@@H]1CC[C@H]2CC(=O)C[C@@H]12)OC	> 100 µM
ClC(=Nc1cccc2ccccc12)N(c1ccccc1)c1ccccc1	> 100 µM
CCOC(=O)/N=c1\ss/c(=N\C(=S)N(C)C)n1-c1ccccc1	> 100 µM
COc1cc(N(CCC#N)CCC#N)ccc1/C(N=Nc1ccc(C)cc1)=N/NC(=O)c1cc(Br)ccc1O	> 100 µM
COc1cc(C2C(Cl)C(=O)N2n2cnc3ccccc3c2=O)cc(OC)c1OC (stereo not given)	> 100 µM

###

# System: MOLT-4 leukemia
# EXPERIMENTAL_PROTOCOL: NCI tumour cell line growth inhibition, 48 h; in the data active = GI50 below about 0.43 µM; inactive = the rest
Possible outcomes: 1 (active), -1 (inactive)

COMPOUND	GROUP_LABEL
COc1cccc(NC(=O)c2sc3nc4c(cc3c2N)CCCC4)c1	-1
O=[N+]([O-])c1ccc(N/N=C\c2cc(Cl)ccc2O)nc1	-1
OB([O][Hg][c]1ccccc1)[O][Hg][c]1ccccc1	1
COc1ccc(-c2cc(-c3ccc(Nc4nc(Nc5ccc(Cl)cc5)nc(Nc5ccc(Cl)cc5)n4)cc3)nc(N)c2C#N)cc1	-1
COc1cc(C2CC(c3cccc(Nc4ccncc4)c3)=NN2c2cc(Cl)cc(Cl)c2)cc(OC)c1OC (stereo unspecified)	-1
CC12OC(C(=O)C13CC3)C1C(=O)c3ccccc3C(=O)C12 (stereo unspecified)	-1
CCCCCCCCCCCCc1ccc(C(=O)/C=C/C(=O)O)cc1	-1
O=C1/C(=C\c2ccc(Cl)cc2)CN(C(=S)Nc2ccccc2)C/C1=C\c1ccc(Cl)cc1	-1
CCOC(=O)/N=c1\ss/c(=N\C(=S)N(C)C)n1-c1ccccc1	-1
COc1cc[nH]c1/C=C1\C(=O)Nc2ccc(F)c(C#C[C@@H](O)[C@@H](N)[C@@H](C)O)c21	-1
Cc1ccc(S(=O)(=O)NC(CCC(=O)Nc2ccc(Cl)cc2)C(=O)Nc2ccc(Cl)cc2)cc1 (stereo unspecified)	-1
CC1(C)N=C(N)N=C(N)N1c1cccc(/C=C/C=C/c2cccc([N+](=O)[O-])c2)c1	-1
C[C@@H](c1ccc2nccn2c1)n1nnc2ncc(-c3cnn(C)c3)nc21	-1
Nc1cccc2c1C(=O)N(C1CCC(=O)NC1=O)C2=O (stereo unspecified)	-1
C1CCC([PH+](C2CCCCC2)C2CCCCC2[PH+](C2CCCCC2)C2CCCCC2)CC1.[Au].[CH-]1CCCCC1C1CCCC[N-]1 (stereo unspecified)	1
CCOC(=O)c1cnc(SCc2ccc(Cl)c(Cl)c2)nc1N1CC1	-1

###

Catalogue of compounds with associated log10 of TGI
# Test system: T-47D breast
# EXPERIMENTAL_PROTOCOL: NCI tumour cell line growth inhibition, 48 h
REPORTED_METRIC: log10 of TGI (log10 of the value in µM)

COMPOUND	log10 of TGI
CCCCCCCCCCCCCCCCCCNC(=O)[C@H]1CSC(c2ccc(OC)c(F)c2)N1 (stereo partly drawn)	0.82
NS(=O)(=O)c1ccc(NC(=O)c2cc([N+](=O)[O-])cc([N+](=O)[O-])c2)cc1	1.93
Cc1nc(-c2ccccc2)c(C)n2c1nc1ccccc12	1.66
COc1cc(O)c(C(=O)/C=C/c2ccccc2)c(OC)c1	1.39
CN(C)CCOc1ccc(I)cc1Cc1ccccc1	1.21
COC(=O)[C@@H]1C=C[C@@H](C#N)n2c(=O)n(-c3ccccc3)c(=O)n21	1.97
CC[C@@H]1CN2CCC1C[C@@H]2C(O)c1ccnc2ccc(OCCN3CCN(CCOc4ccc5nccc(C(O)[C@@H]6C[C@@H]7CCN6C[C@@H]7CC)c5c4)CC3)cc12 (stereo partly drawn)	1.62
Cc1nc2c(o1)C(=O)c1ccccc1C2=NC1CCCCC1N (stereo not drawn)	0.27
CC(NC1=CC(=O)c2ncccc2C1=O)C(O)c1ccccc1 (stereo not drawn)	1.75
COc1cc(N(CCC#N)CCC#N)ccc1/C(N=Nc1ccc(C)cc1)=N/NC(=O)c1cc(Br)ccc1O	1.67
CCCCCCCCCCCCc1ccc(C(=O)/C=C/C(=O)O)cc1	0.61
O=C(c1cccs1)c1c(C(F)(F)F)n([O-])c2ccc(C(F)(F)F)cc2[n+]1=O	0.16
O=C1/C(=C\c2ccc(Cl)cc2)CN(C(=S)Nc2ccccc2)C/C1=C\c1ccc(Cl)cc1	0.56

###

Reported TGI values are given for each entry in this list.
# Test system: HCT-15 colon
# EXPERIMENTAL_PROTOCOL: NCI tumour cell line growth inhibition, 48 h

COMPOUND	TGI
O=C1C=C(N2CCCC2)C=C(N2CCCC2)C1	> 100 µM
NC(N)=NC(CC(=O)O)c1ccccc1 (stereo not given)	> 100 µM
CC(=O)OC1/C(=C/c2ccc([N+](=O)[O-])cc2)C[C@H]2[C@@H]3CC=C4C[C@@H](OC(C)=O)CC[C@]4(C)[C@H]3CC[C@]12C (stereo not given in full)	> 100 µM
O=C(Nc1n[nH]c2nc(-c3ccco3)c(Br)cc12)C1CC1	> 25 µM
COc1cc[nH]c1/C=C1\C(=O)Nc2ccc(F)c(C#C[C@@H](O)[C@@H](N)[C@@H](C)O)c21	18.3 µM

###

# Tested on: OVCAR-8 ovarian
# EXPERIMENTAL_PROTOCOL: NCI tumour cell line growth inhibition, 48 h
TGI for assorted molecules
REPORTED_METRIC: TGI

MOLECULE	TEST_RESULT
CC1=C(C(=O)Nc2ccccc2)C(c2ccc3c(c2)OCO3)C(C(=O)Nc2ccccc2)=C(C)N1	> 100 µM
COc1cc2c(cc1OC)C(=O)C(Br)CC2 (stereo unspecified)	11.7 µM
Clc1ccccc1/C=C/c1nsc(/C=C/c2ccccc2Cl)n1	> 100 µM
O=C1NCC2(CCNCC2)N1c1ccccc1	> 100 µM
CCN(CC)CCNC(=O)c1ccc([N+](=O)[O-])cc1OC	> 100 µM
CC(NC1=CC(=O)c2ncccc2C1=O)C(O)c1ccccc1 (stereo unspecified)	36.2 µM
O=c1[nH]c2cc(C(F)(F)F)ccc2nc1Cc1ccccc1	> 100 µM
CC12OC(C(=O)C13CC3)C1C(=O)c3ccccc3C(=O)C12 (stereo unspecified)	48.4 µM
O=[N+]([O-])c1ccc(Sc2ncccn2)c([N+](=O)[O-])c1	14 µM
CCOc1ccc(N2C(=O)C3c4[nH]c5ccccc5c4C4CCC(C(C)(C)C)CC4C3C2=O)cc1 (stereo unspecified)	> 100 µM
CC(C)(C)c1cc(C(=O)/C=C/c2ccc(O)c(O)c2O)cc(C(C)(C)C)c1O	> 63.7 µM
CNNC1=NS(=O)(=O)c2cc(C)c(Cl)cc2S1	> 10 µM
Cc1cc2c(C)c3cc(C)c(N)cc3nc2cc1N	7.54 µM
CCOC(=O)c1c(O)[nH]c(=O)c(CC)c1C	> 100 µM
CCOC(=O)/N=c1\ss/c(=N\C(=S)N(C)C)n1-c1ccccc1	> 100 µM
COc1cc[nH]c1/C=C1\C(=O)Nc2ccc(F)c(C#C[C@@H](O)[C@@H](N)[C@@H](C)O)c21	5.15 µM
COC(=O)c1ccc2c(c1)CC1(C2)Cc2cc3c(c(C(=O)OC)c2C1)CCCC3 (stereo unspecified)	> 100 µM
COc1cc2c(cc1OC)C1Cc3ccccc3CCN1CC2 (stereo unspecified)	> 100 µM
CC1=C2C(=O)O[C@@H](c3ccoc3)[C@]2(C)CCC1=O	> 100 µM
O=C1c2ccccc2-c2c1c1ccccc1c(=O)n2CCO	> 100 µM
O=C(O)CCC(NC(=O)c1ccc(Nc2nc3ccccc3nc2C(=O)O)cc1)C(=O)O (stereo unspecified)	> 100 µM
N#Cc1ccccc1NC(=O)C(=O)C(C(=O)c1ccccc1-c1ccccc1)C1OC(=O)c2ccccc21 (stereo unspecified)	> 100 µM
O=[N+]([O-])c1ccc(Cl)cc1-n1nc(-c2ccccc2)cc1-c1ccccc1	> 100 µM
C1CCC([PH+](C2CCCCC2)C2CCCCC2[PH+](C2CCCCC2)C2CCCCC2)CC1.[Au].[CH-]1CCCCC1C1CCCC[N-]1 (stereo unspecified)	> 100 µM
COc1ccccc1/C=C1\Sc2scc(-c3cccc([N+](=O)[O-])c3)[n+]2C1=O	24.8 µM
O=C(O)c1cccc(S(=O)(=O)NN2C(=O)CSC2c2ccccc2)c1 (stereo unspecified)	> 100 µM

###

Reported TGI is given for each of the following compounds.
# Tested on: UACC-257 melanoma
# EXPERIMENTAL_PROTOCOL: NCI tumour cell line growth inhibition, 48 h

COMPOUND	LT_GT_EQ	TGI / µM
C1=CN2C[n+]3cccc(OCc4ccccc4)c3N=C2C(OCc2ccccc2)=C1	=	27.5
C=C(c1ccccc1N)[C@@]1(O)C[C@H](/C(=C\C)CO)C[C@@H]1NCc1ccccc1	=	32.3
O=S(=O)(O)CS(=O)(=O)OCCCl	>	100
O=C1c2ccccc2-c2c1c1ccccc1c(=O)n2CCO	>	100
COc1cc2c3c(n(C)c(=O)c2cc1OC)-c1cc2c(cc1/C3=C\CCCCN)OCO2	=	35.7
O=C1C2=C(c3ccccc31)C(c1ccc(Cl)cc1)N1C(=O)CCSC1=N2 (stereo unspecified)	>	100
